- assay.name: Pharmacokinetics of SN-38 and SN-38G after i.v. dosing of SN-38 in 40% SBECD
- Format: in vivo, Female Sprague-Dawley rats
- test.context: female, Sprague-Dawley, rat, in vivo, iv, 2 mg/kg
- Procedure: Female Sprague-Dawley rats, 4 animals per group received i.v. injections of SN-38 (doses 0.65 mg/kg and 2 mg/kg) in 40% SBECD. The SN-38 solution for the treatment was prepared by the dilution of concentrated composition of the Example 1 with water. The blood plasma samples were collected from each group of animals, extracted using liquid extraction with cold methanol/acetonitrile mixture (1:1 v/v), and analyzed using a HPLC method with fluorescent detection. […]

structure.string	concentration at 0.5 h (ng/mL)
CCc1c2c(nc3ccc(O)cc13)-c1cc3c(c(=O)n1C2)COC(=O)[C@]3(O)CC	157
